# Tested on: MDA-MB-435
# assay method text: NCI tumour cell line growth inhibition, 48 h
Each record here notes measured TGI.

- molecule: "COc1ccc(/C(Cl)=C(\\C=O)c2cc(OC)c(OC)c(OC)c2)cc1OC"
  TGI: "> 100 µM"
- molecule: "c1ccc2c(c1)n1c(N3CCOCC3)[n+]3ccccc3c1c1c3cccc[n+]3c(N3CCOCC3)n21"
  TGI: "> 100 µM"
- molecule: "Cc1c(N(C(=O)c2cc(-c3cc(Cl)ccc3C(=O)N3Cc4ccccc4C[C@H]3CN3CCOCC3)n(C)c2C)c2ccc(O)cc2)cc(C#N)n1C"
  TGI: "40.7 µM"
- molecule: "COc1ccc(/C=c2/[nH]c(=O)/c(=C\\c3ccc(OCc4ccccc4)cn3)[nH]c2=O)cc1"
  TGI: "> 100 µM"
- molecule: "C=C1C(=O)O[C@H]2[C@H]1CC/C(COC(=O)N[C@@H](Cc1c[nH]c3ccccc13)C(=O)OC)=C\\CC[C@@]1(C)O[C@@H]21"
  TGI: "3.25 µM"
- molecule: "Cc1cc(C)n(C(=O)C(C)Sc2nnc(SC(C)C(=O)n3nc(C)cc3C)s2)n1 (centres undefined)"
  TGI: "> 100 µM"
- molecule: "COc1cc(C(=O)O)ccc1NC(=O)[C@@H]1N[C@@H](CC(C)(C)C)[C@](C#N)(c2ccc(Cl)cc2F)[C@H]1c1cccc(Cl)c1F"
  TGI: "13.1 µM"
- molecule: "COc1cc(/C=C/C(=O)CC(=O)/C=C/c2ccc(OC(=O)CCNC34CC5CC(CC(C5)C3)C4)c(OC)c2)ccc1OC(=O)CCNC12CC3CC(CC(C3)C1)C2"
  TGI: "6.53 µM"
- molecule: "O=C(NN1C(=O)/C(=C/c2ccc(Cl)cc2)N=C1c1ccccc1)c1c(Cl)c(Cl)c(Cl)c(Cl)c1-c1nc2ccccc2[nH]1"
  TGI: "11.6 µM"
- molecule: "Cc1cc(S(=O)(=O)/N=C(\\N)n2nc(C)c(C)c2C)c(SCc2ccccc2)cc1Cl"
  TGI: "> 100 µM"
- molecule: "CC1=C(C#N)C(=O)N(/N=C/c2ccc(Cl)cc2)C(=O)/C1=c1\\o/c(=C2/C(=O)N(/N=C/c3ccc(Cl)cc3)C(=O)C(C#N)=C2C)c2nccnc12"
  TGI: "> 100 µM"
- molecule: "CC(C)CC(NC(=O)OCc1ccccc1)C(=O)NCCCCC(N)C(=O)NC(CCCCNC(=O)C(CC(C)C)NC(=O)OCc1ccccc1)C(=O)NC(CCCCNC(=O)C(CC(C)C)NC(=O)OCc1ccccc1)C(=O)NC(CCCCNC(=O)C(CC(C)C)NC(=O)OCc1ccccc1)C(=O)NC(CCCCNC(=O)C(CC(C)C)NC(=O)OCc1ccccc1)C(=O)NC(CCCCNC(=O)C(CC(C)C)NC(=O)OCc1ccccc1)C(=O)O (centres undefined)"
  TGI: "> 100 µM"
- molecule: "O=C(CSc1nc2sc3c(c2c(=O)n1-c1ccccc1)CCCCC3)N/N=C/c1ccc(F)cc1"
  TGI: "> 100 µM"
- molecule: "COC(=O)C1=C(C(=O)OC)C(C(=O)c2ccccc2)N2N=C(c3ccc(Cl)cc3)C=CC12 (centres undefined)"
  TGI: "> 100 µM"

Source listed as PubChem BioAssay (NCI).
